We begin with a simple list: items and their reported IC50.
System: U266B1
Experiment: Cell strain inhibition activity (Promega single solution cell proliferation test kit), U266
Assay type: cell-based
Settings: Homo sapiens, U-266; U266B1 cells, 24 h incubation with drug; read-out: IC50 concentration (nM) of the drugs to cytotoxicity, U266B1
State just the number; it will be interpreted in nM.

>>> result("COC[C@H](NC(=O)[C@@H](CSC)NC(=O)c1cnccn1)C(=O)N[C@@H](Cc1ccccc1)C(=O)[C@@]1(C)CO1 [Compound 41]")
160

# ---- query compound ----
Given COC[C@H](NC(=O)c1cnccn1)C(=O)N[C@H](CSC)C(=O)N[C@@H](CC(C)C)C(=O)[C@@]1(C)CO1 [Compound 32] , state its recorded IC50.
13700

====

PARAMETER: melting point

>>> result("CSC[C@@H](NC(=O)c1cc(C)on1)C(=O)N[C@H](CSC)C(=O)N[C@@H](Cc1ccccc1)C(=O)[C@@]1(C)CO1")
"149 to 150 °C"
>>> result("COC[C@H](NC(=O)[C@@H](CSC)NC(=O)c1cc(C)on1)C(=O)N[C@@H](CC(C)C)C(=O)[C@@]1(C)CO1")
"49.5 to 51.8 °C"
>>> result("COC[C@H](NC(=O)[C@@H](CSC)NC(=O)c1cnccn1)C(=O)N[C@@H](Cc1ccccc1)C(=O)[C@@]1(C)CO1")
"49.7 to 51.2 °C"

# ---- query compound ----
Given COC[C@H](NC(=O)c1cc(C)on1)C(=O)NCC(=O)N[C@@H](CC(C)C)C(=O)[C@@]1(C)CO1 , state its recorded melting point.
47.7 to 49.1 °C

====

Assay: Primary cytotoxicity, monocytes from healthy volunteers
Type: cell-based
Conditions: human, primary blood monocytes from a healthy volunteer, Healthy volunteer 3 (first line, r4), 24 h incubation with drug, read-out: IC50 concentration (nM) of the drugs to cytotoxicity, Healthy volunteer 3
PARAMETER: IC50 at 24 h (nM)
State just the number; it will be interpreted in nM.

Given COC[C@H](NC(=O)c1cnc(C)s1)C(=O)N[C@@H](COC)C(=O)N[C@@H](Cc1ccccc1)C(=O)[C@@]1(C)CO1 [Oprozomib, reference compound] , state its recorded IC50 at 24 h.
598

====

We begin with a simple list: items and their reported melting point.

Solved entries (count: 10):
>>> result("CSC[C@@H](NC(=O)c1cc(Cl)ccc1Cl)C(=O)N[C@H](CSC)C(=O)N[C@@H](Cc1ccccc1)C(=O)[C@@]1(C)CO1")
"150 to 151 °C"
>>> result("CSC[C@@H](NC(=O)c1cc(Cl)ccc1Cl)C(=O)N[C@H](CSC)C(=O)N[C@@H](CC(C)C)C(=O)[C@@]1(C)CO1")
"163.1 to 164.5 °C"
>>> result("COC[C@H](NC(=O)c1cc(C)on1)C(=O)NCC(=O)N[C@@H](Cc1ccccc1)C(=O)[C@@]1(C)CO1")
"54 to 55 °C"
>>> result("COC[C@H](NC(=O)c1cnccn1)C(=O)N[C@H](CSC)C(=O)N[C@@H](Cc1ccccc1)C(=O)[C@@]1(C)CO1")
"46.1 to 47.6 °C"
>>> result("CSC[C@@H](NC(=O)c1cc(C)on1)C(=O)NCC(=O)N[C@@H](CC(C)C)C(=O)[C@@]1(C)CO1")
"58.4 to 59.8 °C"
>>> result("COC[C@H](NC(=O)[C@@H](CSC)NC(=O)c1cc(Cl)ccc1Cl)C(=O)N[C@@H](Cc1ccccc1)C(=O)[C@@]1(C)CO1")
"51.2 to 52.7 °C"
>>> result("COC[C@H](NC(=O)[C@@H](CSC)NC(=O)c1cc(Cl)ccc1Cl)C(=O)N[C@@H](CC(C)C)C(=O)[C@@]1(C)CO1")
"59.8 to 60.3 °C"
>>> result("COC[C@H](NC(=O)[C@@H](CSC)NC(=O)c1cnccn1)C(=O)N[C@@H](CC(C)C)C(=O)[C@@]1(C)CO1")
"59.6 to 61.2 °C"
>>> result("COC[C@H](NC(=O)c1cnccn1)C(=O)N[C@H](CSC)C(=O)N[C@@H](CC(C)C)C(=O)[C@@]1(C)CO1")
"50 to 51 °C"
>>> result("CSC[C@@H](NC(=O)c1cnc(C)s1)C(=O)N[C@H](CSC)C(=O)N[C@@H](Cc1ccccc1)C(=O)[C@@]1(C)CO1")
"73 to 74 °C"

Given COC[C@H](NC(=O)c1cc(Cl)ccc1Cl)C(=O)N[C@H](CSC)C(=O)N[C@@H](Cc1ccccc1)C(=O)[C@@]1(C)CO1 , state its recorded melting point.
50.7 to 52.3 °C

Also, COC[C@H](NC(=O)c1cc(C)on1)C(=O)N[C@H](CSC)C(=O)N[C@@H](CC(C)C)C(=O)[C@@]1(C)CO1 please.
70.2 to 72.7 °C

Also, CSC[C@@H](NC(=O)c1cnc(C)s1)C(=O)N[C@H](CSC)C(=O)N[C@@H](CC(C)C)C(=O)[C@@]1(C)CO1 please.
150 to 151 °C
